# studySystem: CD28 (Homo sapiens, UniProt P10747)
# experiment: Jurkat/IL2 + CHO/OKT3 +/- PD-L1 reporter assay: PD-L1-dependent CD28 costimulation
# Format: cell-based
# Design: host or cells: Jurkat cells expressing an IL-2-luciferase reporter
# studyConditions: Table E21; Jurkat/IL2 + CHO/OKT3/PD-L1; CD80 Conc 5.0 nM
For each of the molecules below, state its Relative Luciferase Units (RLU), CD80 Conc 5.0 nM.
Only the number, expressed in RLU, is required.

Incoming: Relative Luciferase Units (RLU), CD80 Conc 5.0 nM lookup needed for M47V/N48K/K89N (protein) VIHVTKEVKEVATLSCGHNVSVEELAQTRIYWQKEKKMVLTMMSGDVKIWPEYKNRTIFDITNNLSIVILALRPSDEGTYECVVLKYENDAFKREHLAEVTLSVKAD , thanks.
Outgoing: 472

Incoming: Relative Luciferase Units (RLU), CD80 Conc 5.0 nM lookup needed for D46V/M47L/L85Q (protein) VIHVTKEVKEVATLSCGHNVSVEELAQTRIYWQKEKKMVLTMMSGVLNIWPEYKNRTIFDITNNLSIVILALRPSDEGTYECVVQKYEKDAFKREHLAEVTLSVKAD , thanks.
Outgoing: 598

Incoming: Relative Luciferase Units (RLU), CD80 Conc 5.0 nM lookup needed for M47V (protein) VIHVTKEVKEVATLSCGHNVSVEELAQTRIYWQKEKKMVLTMMSGDVNIWPEYKNRTIFDITNNLSIVILALRPSDEGTYECVVLKYEKDAFKREHLAEVTLSVKAD , thanks.
Outgoing: 445

Incoming: Relative Luciferase Units (RLU), CD80 Conc 5.0 nM lookup needed for D46V/L85Q (protein) VIHVTKEVKEVATLSCGHNVSVEELAQTRIYWQKEKKMVLTMMSGVMNIWPEYKNRTIFDITNNLSIVILALRPSDEGTYECVVQKYEKDAFKREHLAEVTLSVKAD , thanks.
Outgoing: 342

Incoming: Relative Luciferase Units (RLU), CD80 Conc 5.0 nM lookup needed for E35D/D46V/M47L/V68M/L85Q (protein) VIHVTKEVKEVATLSCGHNVSVEELAQTRIYWQKDKKMVLTMMSGVLNIWPEYKNRTIFDITNNLSIMILALRPSDEGTYECVVQKYEKDAFKREHLAEVTLSVKAD , thanks.
Outgoing: 712

Incoming: Relative Luciferase Units (RLU), CD80 Conc 5.0 nM lookup needed for E35D/V68M/L85Q (protein) VIHVTKEVKEVATLSCGHNVSVEELAQTRIYWQKDKKMVLTMMSGDMNIWPEYKNRTIFDITNNLSIMILALRPSDEGTYECVVQKYEKDAFKREHLAEVTLSVKAD , thanks.
Outgoing: 511

Incoming: Relative Luciferase Units (RLU), CD80 Conc 5.0 nM lookup needed for E35D/D46V/M47V/N48K/V68M (protein) VIHVTKEVKEVATLSCGHNVSVEELAQTRIYWQKDKKMVLTMMSGVVKIWPEYKNRTIFDITNNLSIMILALRPSDEGTYECVVLKYEKDAFKREHLAEVTLSVKAD , thanks.
Outgoing: 696

Incoming: Relative Luciferase Units (RLU), CD80 Conc 5.0 nM lookup needed for E35D/M47V/N48K/V68M/L85Q (protein) VIHVTKEVKEVATLSCGHNVSVEELAQTRIYWQKDKKMVLTMMSGDVKIWPEYKNRTIFDITNNLSIMILALRPSDEGTYECVVQKYEKDAFKREHLAEVTLSVKAD , thanks.
Outgoing: 907
